Reported values of log10(IC50) for individual entries
Target: human CCR10 (Homo sapiens)
Construct: expressed in transfected cells
Experiment: Chemotaxis assay (CCR10-transfected 300-19 cells, CCL27 gradient)
Assay type: cell-based
Details: CCR10-transfected 300-19 murine pre-B cells; 30 nM CCL27 gradient
Procedure: Lyophilized peptides were weighed on a Microbalance (Mettler MX5) and dissolved in aqueous 90% DMSO to a final concentration of 10 mM unless otherwise stated. Stock solutions were kept at +4° C., and protected from light. […] The chemotactic response of CCR10-transfected 300-19 murine pre-B cells to a gradient of CCL27 (CTACK) was measured using disposable Transwell® assay plates from Costar (5 μm pore size) according to the protocol of the manufacturer. […]
Numbered stars: 1 amine (or outer) side, 2 acyl side, 3 side chain; on linkers, the order of the positions; unused ones are H or OH. Square brackets hold non-standard residues; d marks the D form. Side chains are listed from the residue outwards. Peptide text beside a SMILES is read from it. * marks the point of attachment. Oic = O=C(O)[C@@H]1C[C@@H]2CCCC[C@@H]2N1; cisHyp = O=C(O)[C@@H]1C[C@H](O)CN1; Hyp = O=C(O)[C@@H]1C[C@@H](O)CN1; Benzyl(4-Br) = Brc1ccc(C*)cc1; N(Me)CH2CH2OMe = COCCN(C)*; Ac5c = NC1(C(=O)O)CCCC1; Dab = NCC[C@H](N)C(=O)O; X14 = N#Cc1cccc(C*)c1; CO = O=C([*:1])[*:2]; NHCH2CH2OMe = COCCN*; Bn = c1ccc(C*)cc1
recorded_endpoint: log10(IC50) (log10 of the value in nM)

[
  {
    "compound": "O=C1NC2(CCCC2)C(=O)N[C@@H](Cc2c[nH]c3ccccc23)C(=O)N[C@@H](CO)C(=O)N2CCC[C@@H]2C(=O)N2C[C@H](OCc3ccccc3)C[C@H]2C(=O)N[C@H]1Cc1c[nH]c2ccccc12 [compound 46, cyclo(-Trp-Cyp-Trp-Ser-^DPro-Hyp(Bn)-)] (cyclo([Ac5c]WS[dP][Hyp](Bn)W))",
    "test_value": 1.55
  },
  {
    "compound": "N#Cc1cccc(CO[C@@H]2C[C@H]3C(=O)N[C@@H](Cc4c[nH]c5ccccc45)C(=O)NC4(CCCC4)C(=O)N[C@@H](Cc4c[nH]c5ccccc45)C(=O)N[C@@H](CCN)C(=O)N4CCC[C@@H]4C(=O)N3C2)c1 [compound 77] (cyclo([Ac5c]W[Dab][dP][Hyp](X14)W))",
    "test_value": 1.71
  },
  {
    "compound": "COCCN(C)C(=O)NCC[C@@H]1NC(=O)[C@H](Cc2c[nH]c3ccccc23)NC(=O)C2(CCCC2)NC(=O)[C@H](Cc2c[nH]c3ccccc23)NC(=O)[C@@H]2C[C@@H]3CCCC[C@@H]3N2C(=O)[C@H]2CCCN2C1=O [Ex. 97] (cyclo([Ac5c]W[Dab]([CO-N(Me)CH2CH2OMe])[dP][Oic]W))",
    "test_value": 0.75
  },
  {
    "compound": "NCC[C@@H]1NC(=O)[C@H](Cc2c[nH]c3ccccc23)NC(=O)C2(CCCC2)NC(=O)[C@H](Cc2c[nH]c3ccccc23)NC(=O)[C@@H]2C[C@@H](OCc3ccc(Br)cc3)CN2C(=O)[C@H]2CCCN2C1=O [compound 56] (cyclo([Ac5c]W[Dab][dP][Hyp](Benzyl(4-Br))W))",
    "test_value": 0.40
  },
  {
    "compound": "NCC[C@H](N)C(=O)NCC[C@@H]1NC(=O)[C@H](Cc2c[nH]c3ccccc23)NC(=O)C2(CCCC2)NC(=O)[C@H](Cc2c[nH]c3ccccc23)NC(=O)[C@@H]2C[C@@H]3CCCC[C@@H]3N2C(=O)[C@H]2CCCN2C1=O [Ex. 71, cyclo(-Trp-Cyp-Trp-Dab(Dab)-^DPro-Oic-)] (cyclo([Ac5c]W[Dab](Dab)[dP][Oic]W))",
    "test_value": 1.70
  },
  {
    "compound": "NCC[C@@H]1NC(=O)[C@H](Cc2c[nH]c3ccccc23)NC(=O)C2(CCCC2)NC(=O)[C@H](Cc2c[nH]c3ccccc23)NC(=O)[C@@H]2C[C@H](OCc3ccccc3)CN2C(=O)[C@H]2CCCN2C1=O [Ex. 51] (cyclo([Ac5c]W[Dab][dP][cisHyp](Bn)W))",
    "test_value": 1.78
  },
  {
    "compound": "COCCNC(=O)NCC[C@@H]1NC(=O)[C@H](Cc2c[nH]c3ccccc23)NC(=O)C2(CCCC2)NC(=O)[C@H](Cc2c[nH]c3ccccc23)NC(=O)[C@@H]2C[C@@H]3CCCC[C@@H]3N2C(=O)[C@H]2CCCN2C1=O [Ex. 73] (cyclo([Ac5c]W[Dab]([CO-NHCH2CH2OMe])[dP][Oic]W))",
    "test_value": 0.72
  }
]

----------
Biological target: human CCR10 (Homo sapiens, UniProt P46092)
Construct: expressed in transfected cells
Sequence (P46092 1-362): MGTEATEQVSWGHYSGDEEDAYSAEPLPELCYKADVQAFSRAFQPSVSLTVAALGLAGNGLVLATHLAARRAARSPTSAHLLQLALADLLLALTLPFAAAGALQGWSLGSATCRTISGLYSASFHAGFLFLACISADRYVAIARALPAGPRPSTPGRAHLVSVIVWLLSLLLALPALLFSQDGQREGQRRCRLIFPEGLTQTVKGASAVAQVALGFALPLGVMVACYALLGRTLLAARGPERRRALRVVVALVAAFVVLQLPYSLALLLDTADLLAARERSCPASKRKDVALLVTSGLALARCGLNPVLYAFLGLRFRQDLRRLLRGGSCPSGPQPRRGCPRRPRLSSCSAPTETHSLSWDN
Assay: Chemotaxis assay (CCR10-transfected 300-19 cells, CCL27 gradient)
Format: cell-based
Details: CCR10-transfected 300-19 murine pre-B cells; 30 nM CCL27 gradient
Numbered stars: 1 amine (or outer) side, 2 acyl side, 3 side chain; on linkers, the order of the positions; unused ones are H or OH. Square brackets hold non-standard residues; d marks the D form. Peptide text beside a SMILES is read from it. * marks the point of attachment. X4 = N#Cc1cccc(C[C@@H]2C[C@@H](C(=O)[*:2])N([*:1])C2)c1; Pro(cis-4-Ph) = O=C(O)[C@@H]1C[C@H](c2ccccc2)CN1; Trp(6-Cl) = N[C@@H](Cc1c[nH]c2cc(Cl)ccc12)C(=O)O; Phe(4-CF3) = N[C@@H](Cc1ccc(C(F)(F)F)cc1)C(=O)O; Pro(4R-Bn) = O=C(O)[C@@H]1C[C@@H](Cc2ccccc2)CN1; Trp(5-OH) = N[C@@H](Cc1c[nH]c2ccc(O)cc12)C(=O)O; X7 = O=C([C@H](CCNCc1c[nH]cn1)N[*:1])[*:2]; Oic = O=C(O)[C@@H]1C[C@@H]2CCCC[C@@H]2N1; Phe(4-CN) = N#Cc1ccc(C[C@H](N)C(=O)O)cc1; Pro(cis-4-F) = O=C(O)[C@@H]1C[C@H](F)CN1; Phe(4-F) = N[C@@H](Cc1ccc(F)cc1)C(=O)O; Hyp = O=C(O)[C@@H]1C[C@@H](O)CN1; Tic = O=C(O)[C@@H]1Cc2ccccc2CN1; MeOCH2CH2OCH2CO = COCCOCC(=O)*; dPip = O=C(O)[C@H]1CCCCN1; Thz = O=C(O)[C@@H]1CSCN1; Ac5c = NC1(C(=O)O)CCCC1; Dab = NCC[C@H](N)C(=O)O; X8 = Cn1cncc1CCC(=O)*; Aib = CC(C)(N)C(=O)O; Bn = c1ccc(C*)cc1; Ms = CS(=O)(=O)*
IC50 overview

[
  {
    "compound": "N#Cc1ccc(C[C@@H]2NC(=O)[C@@H]3C[C@@H](OCc4ccccc4)CN3C(=O)[C@H]3CCCN3C(=O)[C@H](CO)NC(=O)[C@H](Cc3ccc(F)cc3)NC(=O)C3(CCCC3)NC2=O)cc1 [compound 44] (cyclo([Ac5c][Phe(4-F)]S[dP][Hyp](Bn)[Phe(4-CN)]))",
    "IC50 (nM)": 13.5
  },
  {
    "compound": "CC1(C)NC(=O)[C@H](Cc2c[nH]c3ccccc23)NC(=O)[C@@H]2Cc3ccccc3CN2C(=O)[C@H]2CCCN2C(=O)[C@H](CCCNC(=N)N)NC(=O)[C@H](Cc2c[nH]c3ccccc23)NC1=O [Ex. 1, cyclo(-Trp-Aib-Trp-Arg-^DPro-Tic-)] (cyclo([Aib]WR[dP][Tic]W))",
    "IC50 (nM)": 94
  },
  {
    "compound": "CS(=O)(=O)NCC[C@@H]1NC(=O)[C@H](Cc2c[nH]c3ccccc23)NC(=O)C2(CCCC2)NC(=O)[C@H](Cc2c[nH]c3ccccc23)NC(=O)[C@@H]2C[C@@H]3CCCC[C@@H]3N2C(=O)[C@H]2CCCN2C1=O [Ex. 100] (cyclo([Ac5c]W[Dab](Ms)[dP][Oic]W))",
    "IC50 (nM)": 3.4
  },
  {
    "compound": "CC1(C)NC(=O)[C@H](Cc2c[nH]c3ccccc23)NC(=O)[C@@H]2Cc3ccccc3CN2C(=O)[C@H]2CCCN2C(=O)[C@H](CCN)NC(=O)[C@H](Cc2c[nH]c3ccccc23)NC1=O [Ex. 2, cyclo(-Trp-Aib-Trp-Dab-^DPro-Tic-)] (cyclo([Aib]W[Dab][dP][Tic]W))",
    "IC50 (nM)": 21.6
  },
  {
    "compound": "NCC[C@@H]1NC(=O)[C@H](Cc2c[nH]c3ccccc23)NC(=O)C2(CCCC2)NC(=O)[C@H](Cc2c[nH]c3ccccc23)NC(=O)[C@@H]2C[C@H](F)CN2C(=O)[C@H]2CCCN2C1=O [Ex. 4] (cyclo([Ac5c]W[Dab][dP][Pro(cis-4-F)]W))",
    "IC50 (nM)": 42
  },
  {
    "compound": "NCC[C@@H]1NC(=O)[C@H](Cc2c[nH]c3ccccc23)NC(=O)C2(CCCC2)NC(=O)[C@H](Cc2ccc(C(F)(F)F)cc2)NC(=O)[C@@H]2C[C@H](c3ccccc3)CN2C(=O)[C@H]2CCCCN2C1=O [Ex. 37] (cyclo([Ac5c]W[Dab][dPip][Pro(cis-4-Ph)][Phe(4-CF3)]))",
    "IC50 (nM)": 22
  },
  {
    "compound": "Cn1cncc1CCC(=O)NCC[C@@H]1NC(=O)[C@H](Cc2c[nH]c3ccccc23)NC(=O)C2(CCCC2)NC(=O)[C@H](Cc2ccc(C(F)(F)F)cc2)NC(=O)[C@@H]2C[C@@H]3CCCC[C@@H]3N2C(=O)[C@H]2CCCN2C1=O [Ex. 108] (cyclo([Ac5c]W[Dab](X8)[dP][Oic][Phe(4-CF3)]))",
    "IC50 (nM)": 2.5
  },
  {
    "compound": "O=C1NC2(CCCC2)C(=O)N[C@@H](Cc2c[nH]c3ccccc23)C(=O)N[C@@H](CCNCc2c[nH]cn2)C(=O)N2CCC[C@@H]2C(=O)N2[C@@H](C[C@@H]3CCCC[C@@H]32)C(=O)N[C@H]1Cc1c[nH]c2ccccc12 [Ex. 106, cyclo(-Trp-Cyp-Trp-Dab(A55)-^DPro-Oic-)] (cyclo([Ac5c]W[X7][dP][Oic]W))",
    "IC50 (nM)": 4.8
  },
  {
    "compound": "N#Cc1ccc(C[C@@H]2NC(=O)[C@@H]3C[C@@H](OCc4ccccc4)CN3C(=O)[C@H]3CCCN3C(=O)[C@H](CCN)NC(=O)[C@H](Cc3c[nH]c4ccccc34)NC(=O)C3(CCCC3)NC2=O)cc1 [compound 49] (cyclo([Ac5c]W[Dab][dP][Hyp](Bn)[Phe(4-CN)]))",
    "IC50 (nM)": 5.3
  },
  {
    "compound": "N#Cc1cccc(C[C@@H]2C[C@H]3C(=O)N[C@@H](Cc4c[nH]c5ccccc45)C(=O)NC4(CCCC4)C(=O)N[C@@H](Cc4c[nH]c5ccccc45)C(=O)N[C@@H](CCN)C(=O)N4CCC[C@@H]4C(=O)N3C2)c1 [compound 40] (cyclo([Ac5c]W[Dab][dP][X4]W))",
    "IC50 (nM)": 3.8
  },
  {
    "compound": "NCC[C@@H]1NC(=O)[C@H](Cc2c[nH]c3ccccc23)NC(=O)C2(CCCC2)NC(=O)[C@H](Cc2c[nH]c3cc(Cl)ccc23)NC(=O)[C@@H]2C[C@@H](OCc3ccccc3)CN2C(=O)[C@H]2CCCN2C1=O [compound 48] (cyclo([Ac5c]W[Dab][dP][Hyp](Bn)[Trp(6-Cl)]))",
    "IC50 (nM)": 8.6
  },
  {
    "compound": "COCCOCC(=O)NCC[C@@H]1NC(=O)[C@H](Cc2c[nH]c3ccccc23)NC(=O)C2(CCCC2)NC(=O)[C@H](Cc2c[nH]c3ccccc23)NC(=O)[C@@H]2C[C@@H]3CCCC[C@@H]3N2C(=O)[C@H]2CCCN2C1=O [Ex. 72] (cyclo([Ac5c]W[Dab](MeOCH2CH2OCH2CO)[dP][Oic]W))",
    "IC50 (nM)": 11.5
  },
  {
    "compound": "NCC[C@@H]1NC(=O)[C@H](Cc2c[nH]c3ccccc23)NC(=O)C2(CCCC2)NC(=O)[C@H](Cc2c[nH]c3ccccc23)NC(=O)[C@@H]2C[C@@H](Cc3ccccc3)CN2C(=O)[C@H]2CCCN2C1=O [Ex. 38] (cyclo([Ac5c]W[Dab][dP][Pro(4R-Bn)]W))",
    "IC50 (nM)": 2.3
  },
  {
    "compound": "NC(=O)CC[C@@H]1NC(=O)[C@H](Cc2c[nH]c3ccccc23)NC(=O)C2(CCCC2)NC(=O)[C@H](Cc2c[nH]c3ccc(O)cc23)NC(=O)[C@@H]2CSCN2C(=O)[C@H]2CCCN2C1=O [Ex. 7, cyclo(-Trp(5OH)-Cyp-Trp-Gln-^DPro-Thz-)] (cyclo([Trp(5-OH)][Ac5c]WQ[dP][Thz]))",
    "IC50 (nM)": 3.1
  }
]
